- Test system: 786-0 renal
- method summary: NCI-60 one-dose screen, 48 h (100 = growth as untreated, 0 = no growth, -100 = all killed)
- condition parameters: 10 µM unless noted
The panel holds about 83,000 compounds, 20% with a hit somewhere; the sample as a whole holds those more often.
Reported growth is given for each of the following compounds.
Report only the number, with the unit % understood.

O=C(Nc1ccc(Nc2ccncc2)cc1)c1ccc(Nc2ccnc3ccc([N+](=O)[O-])cc23)cc1
99.2
O=C(Nc1ccc(Oc2cccc(Cl)c2)c(Cl)c1)c1cccnn1
77.4
Cc1c2ccccc2nc2cc3c(cc12)[C@H]1CC[C@]2(C)C(=O)CC[C@H]2[C@@H]1CC3
98

Looking up N=C(N)c1ccc(-c2ccc(-c3ccccc3)o2)o1 , I see its growth listed as 33.4

Looking up Fc1ccc(/C=C/[C@@H]2C[C@@H](F)CCO2)cc1 , I see its growth listed as 94.4

Looking up CC(C)=CC(=O)N[C@H]1CC[C@]2(C)C3CC[C@]4(C)C(C(C)N(C)C)=CCC4C3CCC2[C@H]1O (stereo partly drawn) , I see its growth listed as 48.2

Looking up c1ccc(-c2ccc3c(c2)C2(CCNCC2)CN3)cc1 , I see its growth listed as 95.1

Looking up N#Cc1c(-c2ccccc2)nc2c(c(-c3ccccc3)nn2-c2ccccc2)c1-c1ccc(N2CCCCC2)cc1 , I see its growth listed as 98.5

###

- Test system: SW-620 colon
- method summary: NCI-60 one-dose screen, 48 h (100 = growth as untreated, 0 = no growth, -100 = all killed)
- condition parameters: 10 µM unless noted
- Description: Growth inhibition of the SW-620 human tumor cell line is measured as a screen for anti-cancer activity. Cells are grown in 96 well plates and exposed to the test compound for 48 hours. Compounds are tested at a single concentration, which is 10^-5 M for most compounds. The reported endpoint is percent growth (GI% or GIPRCNT), where numbers from 0 - 100% represent growth inhibition, and numbers from -100% - 0 represent cell death. For example, a value of 40 represents 60% growth inhibition. […]
The panel holds about 83,000 compounds, 20% with a hit somewhere; the sample as a whole holds those more often.
Rule: measured growth below 30% gets label 1; anything equal to or greater than 30% gets label 0.

COc1cccc(-c2cn3nc(-c4cn(C)c5ccccc45)sc3n2)c1
label 0

is_below(growth, 30%) for C[C@H](c1nc2ccc(C#N)cc2[nH]1)[C@H]1CC[C@H]2[C@@H]3CCC4=CC(=O)CC[C@]4(C)[C@H]3CC[C@]12C ?
label 0

is_below(growth, 30%) for COc1ccc(-c2nc3ccc(C)cc3c3c2c(=O)n(C)c(=O)n3C)cc1OC ?
label 0

is_below(growth, 30%) for Nc1[nH]nc2nc(-c3ccccc3)n3c4ccccc4nc3c12 ?
label 0

is_below(growth, 30%) for COc1ccc(N/N=C/c2cn(-c3ccc(C(=O)O)cc3)nc2-c2cc3ccccc3oc2=O)cc1 ?
label 0

is_below(growth, 30%) for CCN(CC)CCOc1ccc(/C(=C(\C)Cc2ccc(OC)cc2)c2ccc(OC(=O)NCc3ccccc3)cc2)cc1 ?
label 0

is_below(growth, 30%) for Fc1cccc(CNc2c3ccccc3nc3ccccc23)c1 ?
label 1

is_below(growth, 30%) for COc1cc(/C=C/C(=O)N2CCN(C(=O)c3cc(OC)c(OC)c(OC)c3)CC2)ccc1OCCCOc1cc2c(cc1OC)C(=O)N1CCC[C@H]1C=N2 ?
label 1

is_below(growth, 30%) for CC(C)(Sc1cc(C(C)(C)C)c(O)c(C(C)(C)C)c1)Sc1cc(C(C)(C)C)c(OC(=O)CCC(=O)O)c(C(C)(C)C)c1 ?
label 0

is_below(growth, 30%) for C=CC(CC(c1ccccc1)(c1ccccc1)c1ccccc1)N(CC)CC (stereo not drawn) ?
label 0
